target: iNOS (Mus musculus, UniProt P29477); test: NOS inhibition assay (literature protocols), inducible isoform
Measured pKi of individual entries
# pKi is unitless: minus log10 of the molar concentration; print number only

Worked cases, answers included:
- smiles.input: "Cc1cc(N)nc(C[C@H]2CNC[C@H]2OCCNCCc2c[nH]cn2)c1"
  pKi: 4.82
- smiles.input: "Cc1cc(N)nc(C[C@H]2CNC[C@H]2OCCNCCc2nccs2)c1"
  pKi: 4.46

Shift focus to the following entry.
Find the recorded pKi belonging to "Cc1cc(N)nc(C[C@@H]2CNC[C@@H]2OCCNCCc2nccs2)c1" and report it.
4.64

====

biological target: eNOS (Bos taurus); assay: NOS inhibition assay (literature protocols), endothelial isoform
metric.name: Ki (µM)
Express your answer in µM, writing the number without its unit.

Worked cases, answers included:
- smiles.input: "Cc1cc(N)nc(C[C@H]2CNC[C@H]2OCCNCCc2c[nH]cn2)c1"
  target.or.system: "eNOS (Bos taurus)"
  Ki, µM: 4.23
- smiles.input: "Cc1cc(N)nc(C[C@@H]2CNC[C@@H]2OCCNCCc2nccs2)c1"
  target.or.system: "eNOS (Bos taurus)"
  Ki, µM: 0.058

Shift focus to the following entry.
Find the recorded Ki belonging to "Cc1cc(N)nc(C[C@H]2CNC[C@H]2OCCNCCc2nccs2)c1" and report it.
9.81

====

target: nNOS (Rattus norvegicus, UniProt P29476); assay: NOS inhibition assay (literature protocols), neuronal isoform
metric.name: Ki (µM)
Express your answer in µM, writing the number without its unit.

Any idea what Ki came out for Cc1cc(N)nc(C[C@H]2CNC[C@H]2OCCNCCc2c[nH]cn2)c1 [Compound 4a] on nNOS (Rattus norvegicus, UniProt P29476)?
1.18

Any idea what Ki came out for Cc1cc(N)nc(C[C@@H]2CNC[C@@H]2OCCNCCc2nccs2)c1 [Compound 3c] on nNOS (Rattus norvegicus, UniProt P29476)?
0.716

Any idea what Ki came out for Cc1cc(N)nc(C[C@H]2CNC[C@H]2OCCNCCc2nccs2)c1 [Compound 4c] on nNOS (Rattus norvegicus, UniProt P29476)?
0.044
